assay: Cytotoxicity against human HepG2 cells assessed as decrease in ATP signal after 2 days by CellTiter-Glo assay; type: cell-based; details: read-out: LD50
Measure Name: CC50 at 48 h

Compound | Result
CCCc1cc(=O)oc2cc(N3CCN(C(=O)Nc4ccc(C#N)cc4)CC3)c3c(c12)OC(C)(C)C=C3 | > 25 µg/mL
CCCc1cc(=O)oc2cc(N3CCN(C(=O)Nc4ccccc4Oc4ccccc4)CC3)c3c(c12)OC(C)(C)C=C3 | > 28 µg/mL
CCCc1cc(=O)oc2cc(OCCN3CCCC3)c3c(c12)OC(C)(C)C=C3 | 19 µg/mL

Please turn your attention to the following entry.
QUERY: Suppose we examine the compound CCCc1cc(=O)oc2cc(OC3CCN(C(=O)NCc4ccccc4)CC3)c3c(c12)OC(C)(C)C=C3 ; what CC50 at 48 h value has been reported?
RESULT: > 25 µg/mL

----------
The entries below are paired with their reported MIC90.
tested on: Mycobacterium tuberculosis; test: Antibacterial activity against replicating form of wild type Mycobacterium tuberculosis H37Rv assessed as growth inhibition after 7 days by high-throughput screening assay; assay type: functional; settings: 168 h
Entry rule: numbers only, all in µg/mL.

Worked set:
Compound | Unit Spec | Numeric Readout
CN1CCN(Cc2cc(=O)oc3c2c2c(c4oc([N+](=O)[O-])cc43)C=CC(C)(C)O2)CC1 | µg/mL | 0.08
CCCc1cc(=O)oc2c3c(cc(OCCN4CCOCC4)c12)O[C@H]([N+](=O)[O-])[C@H]3O | µg/mL | 0.08
CCCc1cc(=O)oc2c1c1c(c3oc([N+](=O)[O-])cc32)C=CC(C)(C)O1 | µg/mL | 0.3
CCCc1cc(=O)oc2c1c(OCCN1CCOCC1)cc1oc([N+](=O)[O-])cc12 | µg/mL | 0.08

QUERY: Suppose we examine the molecule CCCc1cc(=O)oc2c1c1c(c3oc([N+](=O)[O-])cc32)CCC(C)(C)O1 ; what MIC90 value has been reported?
RESULT: 0.6

----------
The entries below are paired with their reported MIC90.
tested on: Mycobacterium tuberculosis; experiment: Antibacterial activity against non-replicating form of Mycobacterium tuberculosis MC2 6220 assessed as growth inhibition after 3 days by high-throughput screening assay; type: functional; settings: MC2 6220, 72 h

Molecule | Result
CCCc1cc(=O)oc2c1c(OCCN1CCOCC1)cc1oc([N+](=O)[O-])c(COC(C)=O)c12 | 3 µg/mL
Cc1c(F)c(=O)oc2c3c(c4c(c12)OC(C)(C)CC4)O[C@H]([N+](=O)[O-])[C@H]3O (relative stereo) | < 0.1 µg/mL
CCCc1cc(=O)oc2c3c(c4c(c12)OC(C)(C)C=C4)O[C@H]([N+](=O)[O-])[C@H]3O (relative stereo) | < 0.2 µg/mL
CCCc1cc(=O)oc2c3c(cc(OCCN4CCOCC4)c12)OC(C)([N+](=O)[O-])C3O (racemic) | 100 µg/mL

QUERY: Item: Cc1cc(=O)oc2cc(NC(=O)c3ccc([N+](=O)[O-])o3)c3c(c12)OC(C)(C)C=C3 Test system: Mycobacterium tuberculosis Read-out: MIC90 Value: ?
RESULT: > 20 µg/mL

QUERY: Item: CCCc1cc(=O)oc2c1c(OCCN1CCOCC1)cc1oc([N+](=O)[O-])c(CO)c12 Test system: Mycobacterium tuberculosis Read-out: MIC90 Value: ?
RESULT: 100 µg/mL

QUERY: Item: CCCc1cc(=O)oc2cc(N3CCN(C(=O)NCc4ccccc4)CC3)c3c(c12)OC(C)(C)C=C3 Test system: Mycobacterium tuberculosis Read-out: MIC90 Value: ?
RESULT: > 24 µg/mL

QUERY: Item: CCCc1cc(=O)oc2cc(N3CCN(C(=O)Nc4ccccc4Oc4ccccc4)CC3)c3c(c12)OC(C)(C)C=C3 Test system: Mycobacterium tuberculosis Read-out: MIC90 Value: ?
RESULT: > 28 µg/mL

QUERY: Item: CCCc1cc(=O)oc2cc(Nc3ccccc3)c3c(c12)OC(C)(C)C=C3 Test system: Mycobacterium tuberculosis Read-out: MIC90 Value: ?
RESULT: > 18 µg/mL

QUERY: Item: CCCc1cc(=O)oc2c3c(cc(OCCN4CCOCC4)c12)O[C@H]([N+](=O)[O-])[C@H]3C (racemic) Test system: Mycobacterium tuberculosis Read-out: MIC90 Value: ?
RESULT: > 21 µg/mL

QUERY: Item: CCCc1cc(=O)oc2c1c(O)cc1oc([N+](=O)[O-])cc12 Test system: Mycobacterium tuberculosis Read-out: MIC90 Value: ?
RESULT: > 14 µg/mL

QUERY: Item: CCCc1cc(=O)oc2cc(C#CCOc3ccc(F)cc3)c3c(c12)OC(C)(C)C=C3 Test system: Mycobacterium tuberculosis Read-out: MIC90 Value: ?
RESULT: > 21 µg/mL

QUERY: Item: CC1(C)CCc2c3c(c4oc(=O)c5c(c4c2O1)CCCC5)[C@H](O)[C@@H]([N+](=O)[O-])O3 Test system: Mycobacterium tuberculosis Read-out: MIC90 Value: ?
RESULT: 0.8 µg/mL
